biological target: Btk (Homo sapiens, UniProt Q06187); construct: purified from insect cells as a full-length construct containing a N-terminal 6X-His tag; His6 (N); made in house; host or cells: insect cells (Method C); assay: Btk in vitro inhibitory activity (one of Method A TR-FRET, Method B electrophoretic mobility shift, Method C radiometric filter binding); format: biochemical; details: wild-type Btk; read-out: Btk-WT IC50
Sequence (Q06187 whole entry): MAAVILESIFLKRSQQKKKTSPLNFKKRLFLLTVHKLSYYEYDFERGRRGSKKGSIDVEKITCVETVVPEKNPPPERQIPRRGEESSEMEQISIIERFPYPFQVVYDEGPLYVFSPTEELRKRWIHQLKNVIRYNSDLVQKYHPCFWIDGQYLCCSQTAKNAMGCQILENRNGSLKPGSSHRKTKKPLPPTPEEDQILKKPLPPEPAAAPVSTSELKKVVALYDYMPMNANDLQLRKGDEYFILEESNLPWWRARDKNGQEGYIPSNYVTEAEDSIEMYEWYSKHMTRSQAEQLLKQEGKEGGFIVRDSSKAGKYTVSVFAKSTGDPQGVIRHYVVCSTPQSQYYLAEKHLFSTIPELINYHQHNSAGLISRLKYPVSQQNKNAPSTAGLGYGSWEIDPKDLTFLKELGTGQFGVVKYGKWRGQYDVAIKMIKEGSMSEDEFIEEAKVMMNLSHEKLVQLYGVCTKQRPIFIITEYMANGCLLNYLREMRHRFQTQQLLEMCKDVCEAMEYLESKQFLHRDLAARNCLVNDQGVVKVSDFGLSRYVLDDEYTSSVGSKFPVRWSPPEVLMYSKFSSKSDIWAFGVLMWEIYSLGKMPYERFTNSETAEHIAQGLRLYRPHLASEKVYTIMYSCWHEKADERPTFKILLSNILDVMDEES
PARAMETER MEASURED: IC50 (nM)

{"columns": ["RECORD SMILES", "IC50 (nM)"],
 "data": [
  ["CC(C)(C)c1noc(C(=O)NCc2ccc(-c3ccnc4[nH]nc(N5CC[C@H](N)C5)c34)cc2F)n1", 1.45]
]}

(A) CC(=O)N1CC[C@H](Oc2n[nH]c3nccc(-c4ccc(CNC(=O)c5nc(C(C)(C)C)no5)c(F)c4)c23)C1
(B) C=CC(=O)N1CC[C@@H](Nc2n[nH]c3nccc(-c4ccc([C@@H](C)NC(=O)c5noc(C(C)(C)C)n5)cc4)c23)C1
Q: Which numeric IC50 is bigger, that of A or that of B ? Respond with the label that goes with your answer.
Ans: A
(A: 3.19 nM, B: 0.165 nM)

###

biological target: Btk (Homo sapiens, UniProt Q06187); construct: purified from insect cells as a full-length construct containing a N-terminal 6X-His tag; His6 (N); made in house; host or cells: insect cells (Method C); assay: Btk in vitro inhibitory activity (one of Method A TR-FRET, Method B electrophoretic mobility shift, Method C radiometric filter binding); format: biochemical; details: wild-type Btk; read-out: Btk-WT IC50
PARAMETER MEASURED: IC50 (nM)

(P) C=CC(=O)N1CC[C@@H](Nc2n[nH]c3nccc(-c4ccc(CNC(=O)c5nnc(C(C)(C)C)o5)c(F)c4)c23)C1 [Example 81]
(Q) C[C@H]1CC[C@@H](Nc2n[nH]c3nccc(-c4ccc(CNC(=O)c5noc(C(C)(C)C)n5)cc4)c23)CN1C(=O)N(C)C [Example 256]
Q: Task for the reader: decide whether P or Q has the larger IC50. Identify your pick by its label.
Ans: Q
(Q: 8.35 nM, P: 0.227 nM)

###

Molecular target: panel of kinases (Homo sapiens)
Sequence (P51813 1-675): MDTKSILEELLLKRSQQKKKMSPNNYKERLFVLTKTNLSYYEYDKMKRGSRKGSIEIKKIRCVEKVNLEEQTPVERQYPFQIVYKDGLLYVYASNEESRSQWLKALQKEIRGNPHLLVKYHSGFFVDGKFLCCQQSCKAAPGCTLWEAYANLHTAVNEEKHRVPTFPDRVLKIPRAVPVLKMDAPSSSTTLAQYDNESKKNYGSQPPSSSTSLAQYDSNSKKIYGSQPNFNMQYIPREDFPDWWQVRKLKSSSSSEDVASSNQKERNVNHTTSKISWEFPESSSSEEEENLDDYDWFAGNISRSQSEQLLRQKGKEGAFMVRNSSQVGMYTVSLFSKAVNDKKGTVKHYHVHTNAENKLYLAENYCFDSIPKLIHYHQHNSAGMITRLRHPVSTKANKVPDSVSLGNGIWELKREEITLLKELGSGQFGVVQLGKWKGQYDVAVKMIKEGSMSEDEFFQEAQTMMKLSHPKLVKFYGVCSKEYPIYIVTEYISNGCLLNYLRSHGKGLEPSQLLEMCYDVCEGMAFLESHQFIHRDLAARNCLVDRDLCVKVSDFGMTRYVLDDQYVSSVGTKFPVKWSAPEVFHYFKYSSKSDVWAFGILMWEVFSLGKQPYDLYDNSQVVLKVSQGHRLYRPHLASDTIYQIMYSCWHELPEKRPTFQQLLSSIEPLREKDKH
pIC50: −log10 of the molar value.
PARAMETER MEASURED: pIC50

{"columns": ["RECORD SMILES", "pIC50"],
 "data": [
  ["O=C(NCc1ccc(-c2ccnc3[nH]nc(N[C@@H]4CCNC4)c23)cc1F)c1ccccc1", 5.77]
]}

(1) CC(C)(C)c1noc(C(=O)NCc2ccc(-c3ccnc4[nH]nc(N5CCC(NC(=O)c6ccccc6)CC5)c34)cc2F)n1
(2) C=CC(=O)N1CC[C@@H](Nc2n[nH]c3nccc(-c4cccc(NC(=O)c5noc(C(C)(C)C)n5)c4C)c23)C1
Q: Lower value of pIC50 belongs to which: 1 or 2 ? Kindly give the label for the entry you pick.
Ans: 1

###

target: Btk (Homo sapiens, UniProt Q06187); construct: purified from insect cells as a full-length construct containing a N-terminal 6X-His tag; His6 (N); made in house; host or cells: insect cells (Method C); test: Btk in vitro inhibitory activity (one of Method A TR-FRET, Method B electrophoretic mobility shift, Method C radiometric filter binding); assay type: biochemical; settings: wild-type Btk; read-out: Btk-WT IC50
PARAMETER MEASURED: IC50 (nM)

Consider the worked cases shown below.
{"columns": ["COMPOUND", "EXPERIMENTAL TARGET", "IC50 / nM"],
 "data": [
  ["C=CC(=O)N1CC[C@@H](Nc2n[nH]c3nccc(-c4ccc(CNC(=O)c5ccc6scnc6c5)c(F)c4)c23)C1 [Example 362]", "Btk (Homo sapiens, UniProt Q06187)", 0.727],
  ["CC(=O)N[C@@H]1CCN(c2n[nH]c3nccc(-c4ccc(CNC(=O)c5ccc(C(C)(C)O)cc5F)c(F)c4)c23)C1 [Example 423]", "Btk (Homo sapiens, UniProt Q06187)", 50.5]
]}

(P) C=CC(=O)N[C@@H]1CCCC[C@H]1Nc1n[nH]c2nccc(-c3ccc(CNC(=O)c4cc(C(C)(C)C)on4)c(F)c3)c12 [Example 313]
(Q) C[C@@H]1[C@H](Nc2n[nH]c3nccc(-c4ccc(CNC(=O)c5noc(C(C)(C)C)n5)c(F)c4)c23)CCCN1C(=O)C1CC1 [Example 126]
(R) CC(C)c1cc(C(=O)NCc2ccc(-c3ccnc4[nH]nc(N[C@@H]5CCCN[C@@H]5C)c34)cc2F)no1 [Example 172]
(S) C[C@H]1CC[C@@H](Nc2n[nH]c3nccc(-c4ccc(CNC(=O)c5nc(C(C)(C)C)no5)c(F)c4)c23)CN1C(=O)CO [Example 420]
Q: # desc sort on IC50 across 4 compounds Output the labels ranked as instructed.
Ans: R, Q, P, S

###

Target protein (sequence): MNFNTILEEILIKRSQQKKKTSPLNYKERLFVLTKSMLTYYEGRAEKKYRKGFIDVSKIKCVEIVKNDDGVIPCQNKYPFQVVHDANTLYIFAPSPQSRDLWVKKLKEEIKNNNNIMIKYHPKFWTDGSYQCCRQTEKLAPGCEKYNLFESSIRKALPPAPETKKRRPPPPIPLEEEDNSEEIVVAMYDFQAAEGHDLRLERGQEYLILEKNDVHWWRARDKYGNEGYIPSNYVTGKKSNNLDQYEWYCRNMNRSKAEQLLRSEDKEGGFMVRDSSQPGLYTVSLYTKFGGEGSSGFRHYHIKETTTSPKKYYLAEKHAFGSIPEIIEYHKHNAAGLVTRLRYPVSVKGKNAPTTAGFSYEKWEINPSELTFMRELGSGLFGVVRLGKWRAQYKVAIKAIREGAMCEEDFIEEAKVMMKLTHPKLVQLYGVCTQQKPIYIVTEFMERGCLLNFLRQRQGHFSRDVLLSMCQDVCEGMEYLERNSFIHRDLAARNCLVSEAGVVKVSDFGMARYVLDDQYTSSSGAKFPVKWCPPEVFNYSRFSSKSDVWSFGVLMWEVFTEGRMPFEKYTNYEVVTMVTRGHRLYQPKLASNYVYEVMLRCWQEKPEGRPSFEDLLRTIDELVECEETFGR
The entries below come with measured IC50 values attached.

Q: # get_value(readout='IC50', item= CC(C)(C)c1n[nH]c(C(=O)NCc2ccc(-c3ccnc4[nH]nc(N[C@@H]5CCNC5)c34)cc2F)n1 )
Ans: > 10 µM

Q: What do we get for CC(C)(C)c1ccc(C(=O)Nc2ccc(-c3ccnc4[nH]nc(N[C@@H]5CCNC5)c34)cc2F)cc1 ?
Ans: > 10 µM

Q: Same question for C[C@H](NC(=O)c1noc(C(C)(C)C)n1)c1ccc(-c2ccnc3[nH]nc(N[C@@H]4CCNC4)c23)cc1 please.
Ans: > 10 µM

###

target: Btk (Homo sapiens, UniProt Q06187); construct: purified from insect cells as a full-length construct containing a N-terminal 6X-His tag; His6 (N); made in house; host or cells: insect cells (Method C); assay: Btk in vitro inhibitory activity (one of Method A TR-FRET, Method B electrophoretic mobility shift, Method C radiometric filter binding); format: biochemical; conditions: wild-type Btk; read-out: Btk-WT IC50
pIC50: −log10 of the molar value.
PARAMETER MEASURED: pIC50

Some entries whose results are on file:
{"columns": ["COMPOUND", "RESULT"],
 "data": [
  ["CN(C)C(=O)N1CC[C@@H](Oc2n[nH]c3nccc(-c4ccc(CNC(=O)c5noc(C(C)(C)C)n5)c(F)c4)c23)C1 [Example 282]", 7.98],
  ["C[C@H]1CC[C@@H](Nc2n[nH]c3nccc(-c4ccc(CNC(=O)c5cc(C(C)(C)O)on5)c(F)c4)c23)CN1C(=O)N(C)C [Example 418]", 7.30],
  ["CC(C)c1noc(C(=O)N[C@H](C)c2ccc(-c3ccnc4[nH]nc(N5CCOCC5)c34)cc2)n1 [Example 389]", 8.39],
  ["CC(C)(C)c1noc(C(=O)NCc2ccc(-c3ccnc4[nH]nc(OC5CCNC5)c34)cc2F)n1 (centres unmarked) [Example 283]", 7.96],
  ["CC1(C)Cc2cc(C(=O)NCc3ccc(-c4ccnc5[nH]nc(N[C@@H]6CCNC6)c45)cc3F)[nH]c2C1 [Example 149]", 6.13]
]}

(I) N[C@@H]1CCN(c2n[nH]c3nccc(-c4ccc(CNC(=O)c5nc6c(s5)CCCC6)c(F)c4)c23)C1 [Example 366]
(II) C[C@H]1CC[C@@H](Nc2n[nH]c3nccc(-c4ccc(CNC(=O)c5nc(C(C)(C)C)no5)c(F)c4)c23)CN1C(=O)C1(C)COC1 [Example 419]
(III) CC(=O)N[C@@H]1CCN(c2n[nH]c3nccc(-c4ccc(CNC(=O)c5nc6ccccc6o5)c(F)c4)c23)C1 [Example 394]
(IV) C[C@H]1CC[C@@H](Nc2n[nH]c3nccc(-c4ccc(CNC(=O)c5nc(C(C)(C)C)no5)c(F)c4)c23)CN1C(=O)N(C)C [Example 391]
Q: Please put the entries in order of rising pIC50. I'd appreciate it if you listed the labels in the requested order.
Ans: III, I, II, IV
(III: 7.20, I: 7.66, II: 8.73, IV: 9.63)

(1) CC(=O)N1CCC[C@H](Nc2n[nH]c3nccc(-c4ccc(CNC(=O)c5nc(C(C)(C)C)no5)c(F)c4)c23)C1 [Example 168]
(2) CN(C)C(=O)N1CC[C@@H](Nc2n[nH]c3nccc(-c4ccc(CNC(=O)c5coc(C6CC6)n5)c(F)c4)c23)C1 [Example 329]
(3) CC#CC(=O)N1CC[C@@H](Nc2n[nH]c3nccc(-c4ccc(CNC(=O)c5ccc(OC)cc5)c(F)c4)c23)C1 [Example 112]
(4) C[C@@H](NC(=O)c1nc(C(C)(C)C)no1)c1ccc(-c2ccnc3[nH]nc(NC4CCOC4)c23)cc1 (some centres unmarked) [Example 217]
(5) C[C@@H](NC(=O)c1cc(C(C)(C)O)on1)c1ccc(-c2ccnc3[nH]nc(N4CCOCC4)c23)cc1 [Example 404]
Q: List from greatest to least pIC50. A ranking is expressed here by listing the labels in the requested order.
Ans: 3, 4, 5, 1, 2

(1) CC(C)(C)c1ccc(C(=O)Nc2cccc(-c3ccnc4[nH]nc(N[C@@H]5CCNC5)c34)c2CO)cc1 [Example 150]
(2) CC(C)(C)c1ccc2c(c1)CCN(Cc1ccc(-c3ccnc4[nH]nc(N[C@@H]5CCNC5)c34)cc1F)C2=O [Compound 36]
(3) C[C@@H](NC(=O)c1noc(C(C)(C)C)n1)c1ccc(-c2ccnc3[nH]nc(N[C@@H]4CCN(C=O)C4)c23)cc1 [Example 99]
(4) C=CC(=O)N1CCC[C@@H](Nc2n[nH]c3nccc(-c4ccc(CNC(=O)c5cc(CC(C)C)on5)c(F)c4)c23)[C@H]1C [Example 293]
Q: Put the entries in order of pIC50, starting with the largest number. To answer, write out the labels according to the requested order.
Ans: 4, 3, 1, 2
